Give relative viability for every item shown.
- Tested on: UMB1949 (TSC2-deficient);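 further: renal angiomyolipoma cell lines screened in 384-well plates, viability normalized per plate to DMSO-treated cells, each plate carrying 50 nM rapamycin and 1 µM staurosporine controls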
- Experiment notes: relative viability vs DMSO (fraction); higher = less cytotoxic
- Study conditions: 0.32 nM; serum: 0.1% FBS; 72 h
The response must contain the number and no unit.

Sure, the documented relative viability for Nc1cccc2c1C(=O)N(C1CCC(=O)NC1=O)C2=O (centres undefined) [Pomalidomide] is 1.04

Sure, the documented relative viability for "CNC(=O)c1cc(Oc2ccc(NC(=O)Nc3cc(C(C)(C)C)nn3-c3ccc4ncccc4c3)c(F)c2)ccn1" is 1.25

Sure, the documented relative viability for "Nc1ccccc1NC(=O)c1ccc(CNc2nccc(-c3cccnc3)n2)cc1" is 1.05

Sure, the documented relative viability for CN1CC[C@H](c2c(O)cc(O)c3c(=O)cc(-c4ccccc4Cl)oc23)[C@H](O)C1 [Flavopiridol(Alvocidib)] is 1.04
